// data source = ChEMBL document CHEMBL1156466

# system: Sodium/hydrogen exchanger (Amphiuma tridactylum)
# Sequence (Q9W6Q1 whole entry): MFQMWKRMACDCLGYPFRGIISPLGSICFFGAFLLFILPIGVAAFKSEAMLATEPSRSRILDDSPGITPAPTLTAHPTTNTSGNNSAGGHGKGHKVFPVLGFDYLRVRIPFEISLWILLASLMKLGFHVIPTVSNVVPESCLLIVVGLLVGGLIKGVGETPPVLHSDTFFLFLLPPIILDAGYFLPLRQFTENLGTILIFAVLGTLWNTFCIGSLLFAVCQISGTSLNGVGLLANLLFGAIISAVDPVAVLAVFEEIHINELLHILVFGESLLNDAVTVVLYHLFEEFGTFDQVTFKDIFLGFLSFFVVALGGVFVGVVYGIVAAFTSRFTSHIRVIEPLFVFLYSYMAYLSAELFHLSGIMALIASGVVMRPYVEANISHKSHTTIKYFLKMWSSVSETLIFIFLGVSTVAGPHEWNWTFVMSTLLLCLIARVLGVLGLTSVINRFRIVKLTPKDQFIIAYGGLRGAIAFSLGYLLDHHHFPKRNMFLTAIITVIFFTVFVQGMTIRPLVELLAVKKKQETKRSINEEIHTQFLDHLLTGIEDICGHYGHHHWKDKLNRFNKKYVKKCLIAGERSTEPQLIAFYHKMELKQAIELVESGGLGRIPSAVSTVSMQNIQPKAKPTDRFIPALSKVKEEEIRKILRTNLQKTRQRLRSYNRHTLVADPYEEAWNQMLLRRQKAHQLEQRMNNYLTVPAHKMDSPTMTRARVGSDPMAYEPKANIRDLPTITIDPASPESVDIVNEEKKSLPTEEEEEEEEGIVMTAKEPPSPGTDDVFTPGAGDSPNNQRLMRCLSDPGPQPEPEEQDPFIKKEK
# protocol_description: Inhibition of Amphiuma tridactylum wild type NHE1 expressed in chinese hamster AP1 cells assessed as intracellular pHi recovery by ammonium chloride prepulse protocol
So I've got a bunch of compounds here, and I need their pIC50 values.
Remember, pIC50 is on a log scale: it is -log10 of the molar concentration.

compound N=C(N)NC(=O)c1nc(Cl)c(N)nc1N [AMILORIDE] , pIC50 observed: 4.01

Lab note: measured pIC50 of CCN(c1nc(N)c(C(=O)NC(=N)N)nc1Cl)C(C)C [5-(N-ETHYL-N-ISOPROPYL)AMILORIDE] was 5.06
